# Test system: OVCAR-4 ovarian
# Method description: NCI-60 one-dose screen, 48 h
# Condition notes: 10 µM unless noted
This is part of a sample that, as a whole, favours compounds with a hit. Of some 83,000 tested, about 20% had one in any assay. Calls of active or inactive are those of the source. Rule for the calls: active = growth percent below 10; inactive = the rest.
Bench note: report the call from active, inactive

Solved entries:
CCCCCCCCOC(=O)CCN1CC1 :: inactive
COC1=CC(=O)O[C@@H](/C=C/c2ccc3c(c2)OCO3)C1 :: inactive
CN(C)C(=O)Oc1ccccc1 :: inactive
CC1[C@H](C)OC(=O)CC(O)CC(O)CC(O)CCC(O)C(O)C[C@]2(O)CC(O)C(C(=O)O)C(CC(OC3O[C@H](C)[C@@H](O)[C@H](N)[C@@H]3O)/C=C/C=C/C=C/C=C/CC/C=C/C=C/[C@H](C)[C@H]1O)O2 (some centres undefined) :: inactive
COC(=O)N[C@H]1CCc2c(Br)c(OC)c(OC)c(OC)c2-c2ccc(SC)c(=O)cc21 :: inactive
CCOP(=O)(Cc1ccc(C#N)cc1)OCC :: inactive
Cc1c(C)c([N+](=O)[O-])c(C)c(C)c1[N+](=O)[O-] :: inactive
COc1ccc(/C=C\c2cc(OC)c(OC)c(OC)c2)c(NS(=O)(=O)c2ccc(C)cc2)c1O :: inactive
CCCCCSC1C2C(=O)C(Br)=CC13CCNc1c(O)c4c5c(c13)=[N+]2CCC=5C=N4 (centres undefined) :: active
O=NNc1ccccn1 :: inactive

# next molecule below
q: What did this assay record as the result for CN(C)C(=O)Oc1ccccc1-c1ccccc1 ?
a: inactive
